Kindly state viability, T/C for each of the entries shown.
# System: NCI-H1876 complex spheroid growth, % test/control
# ASSAY_PROCEDURE: Anticancer human tumor NCI-H1876 cell line growth inhibition [Asc];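 also: compound exposure lasted 7 days starting three days after seeding; 100% = DMSO vehicle control wells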
# CONDITION: second compound 0.949 µM; first compound 0.0316 µM; active compounds read low
# Excerpt: Multicellular complex tumor spheroid response to apoptosis pathway targeting inhibitors Alrizomadlin, Pelcitoclax, and Dasminapant in combination with a variety of drugs and investigational agents in selected tumor cell lines […] Compounds. […] If the clinical Cmax for an agent had not been determined, the highest concentration tested was 10 microM. […]
# value in %; strip the unit string

For the molecule O=C(c1ccc(F)c(F)c1Nc1ccc(I)cc1F)N1CC(O)([C@@H]2CCCCN2)C1 + CCN1C(C(=O)NC23CCC(C(=O)O)(CC2)CC3)C(c2cccc(Cl)c2F)C2(C(=O)Nc3cc(Cl)ccc32)C12CCCCC2 , what viability, T/C is on record? 112

Try this molecule next: C=CC(=O)N1CCN(c2nc(=O)n(-c3c(C)ccnc3C(C)C)c3nc(-c4c(O)cccc4F)c(F)cc23)C(C)C1 (stereo not given) + CCN1C(C(=O)NC23CCC(C(=O)O)(CC2)CC3)C(c2cccc(Cl)c2F)C2(C(=O)Nc3cc(Cl)ccc32)C12CCCCC2 118

Also check C=C(F)C(=O)N1CCN(c2nc(OCC3CCCN3C)nc3c2CCN(c2cccc4cccc(Cl)c24)C3)CC1CC#N (stereo not given) + CCN1C(C(=O)NC23CCC(C(=O)O)(CC2)CC3)C(c2cccc(Cl)c2F)C2(C(=O)Nc3cc(Cl)ccc32)C12CCCCC2 111

Now the same for NC1CCC(NC2CC2c2ccccc2)CC1 (stereo not given) + CCN1C(C(=O)NC23CCC(C(=O)O)(CC2)CC3)C(c2cccc(Cl)c2F)C2(C(=O)Nc3cc(Cl)ccc32)C12CCCCC2 133

Do the same for O=C(c1cc(Cc2n[nH]c(=O)c3ccccc23)ccc1F)N1CCN(C(=O)C2CC2)CC1 + CCN1C(C(=O)NC23CCC(C(=O)O)(CC2)CC3)C(c2cccc(Cl)c2F)C2(C(=O)Nc3cc(Cl)ccc32)C12CCCCC2 please 122

Likewise for CNC(C)C(=O)NC1CN(S(=O)(=O)c2cccc(S(=O)(=O)N3CCC4CCC(C(=O)NC(c5ccccc5)c5ccccc5)N4C(=O)C(NC(=O)C(C)NC)C3)c2)CCC2CCC(C(=O)NC(c3ccccc3)c3ccccc3)N2C1=O (stereo not given) + CCN1C(C(=O)NC23CCC(C(=O)O)(CC2)CC3)C(c2cccc(Cl)c2F)C2(C(=O)Nc3cc(Cl)ccc32)C12CCCCC2 ? 106

# repeat for CCN1CCN(Cc2ccc(Nc3ncc(F)c(-c4cc(F)c5nc(C)n(C(C)C)c5c4)n3)nc2)CC1 + CCN1C(C(=O)NC23CCC(C(=O)O)(CC2)CC3)C(c2cccc(Cl)c2F)C2(C(=O)Nc3cc(Cl)ccc32)C12CCCCC2 106

Next molecule: C#Cc1c(F)ccc2cc(O)cc(-c3ncc4c(N5CC6CCC(C5)N6)nc(OCC56CCCN5CC(F)C6)nc4c3F)c12 (stereo not given) + CCN1C(C(=O)NC23CCC(C(=O)O)(CC2)CC3)C(c2cccc(Cl)c2F)C2(C(=O)Nc3cc(Cl)ccc32)C12CCCCC2 118

Now the molecule Cn1ncnc1[C@H]1c2n[nH]c(=O)c3cc(F)cc(c23)N[C@@H]1c1ccc(F)cc1 + CCN1C(C(=O)NC23CCC(C(=O)O)(CC2)CC3)C(c2cccc(Cl)c2F)C2(C(=O)Nc3cc(Cl)ccc32)C12CCCCC2 123

Please answer likewise for COc1c(OCCCN2CCOCC2)ccc2c3n(c(=NC(=O)c4cnc(N)nc4)nc12)CCN3 + CCN1C(C(=O)NC23CCC(C(=O)O)(CC2)CC3)C(c2cccc(Cl)c2F)C2(C(=O)Nc3cc(Cl)ccc32)C12CCCCC2 92.4
